# PROCEDURE DETAILS: Gli-Sufu pathway antagonists, primary screen, luciferase luminescence, Sufu-KO-LIGHT cells, uHTS (AID 588413);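 note: 0% = DMSO-treated cells and 100% = wells with medium but no cells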
# TEST PARAMETERS: Sufu-KO-LIGHT fibroblasts, Gli luciferase reporter luminescence; at 5 µM
Screen size: about 340,000 compounds; about 2,500 (0.74%) were called active.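 Rule for the calls: active = inhibition above about 55% (limit read from the data); inactive = the rest.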 The sample as a whole holds a higher share of actives than the screen did.
Can you answer with just one of these options? active, inactive

As a guide, the following entries are already answered.
>  <MOLECULE>
CC(C)c1ccc(C=NNc2ccc([N+](=O)[O-])cn2)cc1

>  <ASSIGNED CATEGORY>
inactive

$$$$
>  <MOLECULE>
Cc1onc(C(=O)NCc2ccc(F)cc2)c1[N+](=O)[O-]

>  <ASSIGNED CATEGORY>
inactive

$$$$
>  <MOLECULE>
CC(=O)N1CCC(C(=O)Nc2nc(-c3ccccc3)ns2)CC1

>  <ASSIGNED CATEGORY>
inactive

$$$$
>  <MOLECULE>
COc1ccc(OC)c(/C=N/NC(=O)CSc2nnc(C)n2-c2ccccc2)c1

>  <ASSIGNED CATEGORY>
inactive

$$$$
>  <MOLECULE>
CC(C)c1ccc(C2C(C#N)=C(N)Oc3c2oc(CO)cc3=O)cc1 (stereo unspecified)

>  <ASSIGNED CATEGORY>
inactive

$$$$
>  <MOLECULE>
Oc1ccc(/C=N/Nc2ccc(C(F)(F)F)cn2)cc1O

>  <ASSIGNED CATEGORY>
active

$$$$
>  <MOLECULE>
FC(F)(F)c1cccc(N/N=C/c2ccccc2)c1

>  <ASSIGNED CATEGORY>
inactive

$$$$
>  <MOLECULE>
COc1ccc(CC(=O)NCC(=O)N/N=C/c2cc(Br)ccc2OC)cc1

>  <ASSIGNED CATEGORY>
inactive

$$$$
>  <MOLECULE>
COc1ccc(C(=O)NCC(=O)N/N=C/c2ccc([N+](=O)[O-])o2)cc1OC

>  <ASSIGNED CATEGORY>
inactive

$$$$
>  <MOLECULE>
O=S(=O)(Cc1ccc(Cl)cc1Cl)c1ccc(Cl)cc1

>  <ASSIGNED CATEGORY>
inactive

$$$$

Here's the next entry for you.
Query :: So what was the verdict on `Cc1ccc(S(=O)(=O)c2cc3c(=O)n4cccc(C)c4nc3n(CCc3ccccc3)c2=N)cc1C` in this test?
Result :: inactive

----------
# PROCEDURE DETAILS: Gli-Sufu pathway antagonists, primary screen, luciferase luminescence, Sufu-KO-LIGHT cells, uHTS (AID 588413);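 note: 0% = DMSO-treated cells and 100% = wells with medium but no cells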
# TEST PARAMETERS: Sufu-KO-LIGHT fibroblasts, Gli luciferase reporter luminescence; at 5 µM; hits give high values
The campaign covered roughly 340,000 compounds. About 2,500 (0.74%) were called active. For the sample, actives were picked, then their nearest neighbours and some compounds at random.
MEASURE: inhibition

These recorded examples may help you get a feel for the data.
>  <COMPOUND>
CCOc1ccc(-n2c(O)c(/C=N/c3ccnn3Cc3ccncc3)c3ccccc3c2=O)cc1

>  <MEASURE>
inhibition

>  <OBS VALUE>
62.7% (active)

$$$$
>  <COMPOUND>
Cc1ccc(-n2c(O)c(C=Nc3ccc(S(=O)(=O)Nc4ncccn4)cc3)c3ccccc3c2=O)cc1C

>  <MEASURE>
inhibition

>  <OBS VALUE>
-0.18% (inactive)

$$$$
>  <COMPOUND>
Cc1ccc(N=Cc2c(O)n(-c3nccs3)c(=O)c3ccccc23)c(C)c1

>  <MEASURE>
inhibition

>  <OBS VALUE>
-4.34% (inactive)

$$$$
>  <COMPOUND>
O=C(C1CCCO1)N1CCN(C(=S)NC2CC2)CC1 (stereo unspecified)

>  <MEASURE>
inhibition

>  <OBS VALUE>
-11.3% (inactive)

$$$$
>  <COMPOUND>
CCN(CC)CCCN=Cc1c(O)n(-c2ccc(C)cc2)c(=O)c2ccccc12

>  <MEASURE>
inhibition

>  <OBS VALUE>
-0.11% (inactive)

$$$$
>  <COMPOUND>
CN(O)C(=S)c1ccccc1

>  <MEASURE>
inhibition

>  <OBS VALUE>
82.7% (active)

$$$$
>  <COMPOUND>
COc1ccc(C(=O)OCC(=O)NCC2CCCO2)cc1[N+](=O)[O-] (stereo unspecified)

>  <MEASURE>
inhibition

>  <OBS VALUE>
-0.12% (inactive)

$$$$
>  <COMPOUND>
CCOc1ccc(-n2c(O)c(/C=N/Nc3nc(C)cc(C)n3)c3ccccc3c2=O)cc1

>  <MEASURE>
inhibition

>  <OBS VALUE>
61.7% (active)

$$$$

Query :: Need inhibition, item `Nc1nc(SCC(=O)Nc2ccc(Cl)c([N+](=O)[O-])c2)n[nH]1`
Result :: -5.39% (inactive)

Query :: Need inhibition, item `O=C(CSc1cccc2cccnc12)N/N=C/c1cccnc1`
Result :: 71% (active)

Query :: Need inhibition, item `CN(CC(=O)O)C(=O)c1ccccc1`
Result :: -17.4% (inactive)

----------
Let's look at some compounds and their measured inhibition.
# PROCEDURE DETAILS: Gli-Sufu pathway antagonists, primary screen, luciferase luminescence, Sufu-KO-LIGHT cells, uHTS (AID 588413);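 note: 0% = DMSO-treated cells and 100% = wells with medium but no cells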
# TEST PARAMETERS: Sufu-KO-LIGHT fibroblasts, Gli luciferase reporter luminescence; at 5 µM; hits give high values
The campaign covered roughly 340,000 compounds. About 2,500 (0.74%) were called active. For the sample, actives were picked, then their nearest neighbours and some compounds at random.
The reply should contain only the number, in %.

These recorded examples may help you get a feel for the data.
>  <COMPOUND>
CC/C(O)=C1\C(=O)CC(C)(C)CC1=NCCc1nc2ccccc2[nH]1

>  <inhibition (%)>
25.2

$$$$
>  <COMPOUND>
COc1ccc(CCNC(=O)CCn2c(=O)c3ccccc3n(CC(=O)NCC3CCCO3)c2=O)cc1OC (stereo not drawn)

>  <inhibition (%)>
2.58

$$$$
>  <COMPOUND>
Cn1cc(S(=O)(=O)Nc2ccc(Cl)cc2Cl)c(=O)n(C)c1=O

>  <inhibition (%)>
1.79

$$$$
>  <COMPOUND>
CC1=NNC(=O)C1CCC(=O)N/N=C(\C)c1ccc(Cl)cc1 (stereo not drawn)

>  <inhibition (%)>
3.52

$$$$

Query compound follows.
Query :: Need inhibition, item `C/C(=N\NC(=O)c1ccccc1F)c1ccccn1`
Result :: 58.4

----------
Let's look at some compounds and their measured inhibition.
# PROCEDURE DETAILS: Gli-Sufu pathway antagonists, primary screen, luciferase luminescence, Sufu-KO-LIGHT cells, uHTS (AID 588413);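 note: 0% = DMSO-treated cells and 100% = wells with medium but no cells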
# TEST PARAMETERS: Sufu-KO-LIGHT fibroblasts, Gli luciferase reporter luminescence; at 5 µM; hits give high values
The whole screen tested about 340,000 compounds, of which about 2,500 (0.74%) were called active. This excerpt belongs to a sample that is enriched for actives.
The reply should contain only the number, in %.

These recorded examples may help you get a feel for the data.
>  <COMPOUND>
CN1CCN(CCC(=O)N/N=C/C=C2\N(C)c3ccccc3C2(C)C)CC1

>  <MEASURE>
inhibition

>  <OBS VALUE>
29.6

$$$$
>  <COMPOUND>
O=C(c1snnc1-c1ccccc1)N1CCOCC1

>  <MEASURE>
inhibition

>  <OBS VALUE>
9.83

$$$$
>  <COMPOUND>
CCCc1c(C(=O)Nc2ccc(F)cc2)cnn1-c1ccccc1

>  <MEASURE>
inhibition

>  <OBS VALUE>
-12.3

$$$$
>  <COMPOUND>
COCC(=O)Nc1ccc(Br)cc1

>  <MEASURE>
inhibition

>  <OBS VALUE>
-3.01

$$$$
>  <COMPOUND>
CCCc1nnc(SCC(=O)Nc2ccc(C(=O)OCC)cc2)o1

>  <MEASURE>
inhibition

>  <OBS VALUE>
-7.14

$$$$
>  <COMPOUND>
CC(=O)c1ccc(S(=O)(=O)NCCC(=O)N2CCN(c3ccccn3)CC2)cc1

>  <MEASURE>
inhibition

>  <OBS VALUE>
-5.24

$$$$
>  <COMPOUND>
Cc1c(C(=O)NCC(c2ccco2)N2CCCC2)oc2ccc(Cl)cc12 (stereo unspecified)

>  <MEASURE>
inhibition

>  <OBS VALUE>
16.9

$$$$
>  <COMPOUND>
CCOC(=O)c1ccc(NC(=O)Cn2cnc3cc(C)c(C)cc32)cc1

>  <MEASURE>
inhibition

>  <OBS VALUE>
65

$$$$

Query :: Need inhibition, item `COc1cccc(CN(C)C(=O)CC23CC4CC(CC(C4)C2)C3)c1OC`
Result :: -2.54

Query :: Need inhibition, item CN1C(CC(=O)Nc2ccc(Br)cc2)c2ccccc2CC1(C)C (stereo unspecified)
Result :: 75.8

Query :: Need inhibition, item CCC(C)(C)NC(=O)C(c1ccc(O)cc1)N(Cc1ccco1)C(=O)CCC(=O)Nc1ccccn1 (stereo unspecified)
Result :: -4.35
